Test system: NCI/ADR-RES
Test: NCI tumour cell line growth inhibition, 48 h
Active and inactive are the calls of the source. Cut-off read from the data, not from the text of the source: active = GI50 up to about 1.1 µM and inactive = higher.
observable: GI50

1. CCOC(=O)/C=C(/C(=O)OCC)n1ccc(=O)n(Cc2cn(CCCCOC(C)=O)nn2)c1=O | > 100 µM (inactive)
2. Cc1ccc(S(=O)(=O)N2CCC[C@@H]2C(=O)O[C@@H]2CCC3CC=CC32)cc1 (stereo not given in full) | 19.3 µM (inactive)
3. O=C1CSc2nc3ccccc3n2/C=N\N1 | > 100 µM (inactive)
4. CC(=O)CC(OC(C)=O)C1=CCC2C(CC1C)OC(=O)C2C (stereo not given) | > 100 µM (inactive)
5. C[C@]12CC[C@@H]3c4ccc(O)cc4CC[C@H]3[C@@H]1CC[C@@H]2OP(=O)(O)O | > 100 µM (inactive)

----------
Test system: SK-MEL-2
Assay: NCI tumour cell line growth inhibition, 48 h
Calls of active or inactive are those of the source. Rule as the data show it: active = GI50 up to about 1.1 µM and inactive = higher.
observable: GI50

1) C/C=C(/CCCCNCCCC)[Si](C)(C)C | 18.7 µM (inactive)
2) CCOC(=O)NC(Nc1cccc(F)c1)(C(F)(F)F)C(F)(F)F | > 100 µM (inactive)
3) Cc1cc(N2CCOCC2)nc2ccc(Cc3ccc4nc(N5CCOCC5)cc(C)c4c3)cc12 | 63.5 µM (inactive)
4) COc1ccc2c(c1)C(N)CC2=O (stereo unspecified) | 27 µM (inactive)
5) CC(CO)(CO)N1C(=O)C2C3c4ccccc4C(c4ccccc43)C2C1=O (stereo unspecified) | > 100 µM (inactive)
6) O=C1C(Cl)N(c2cccc(Cl)c2)C1c1c[nH]c2ccccc12 (stereo unspecified) | > 100 µM (inactive)

----------
Tested on: KM12
Assay: NCI tumour cell line growth inhibition, 48 h
Activity calls are given as the source filed them. Rule as the data show it: active = GI50 up to about 1.1 µM and inactive = higher.
Classes used: yes (1) (active), no (0) (inactive)

1. CC[C@H]1C=CCC[C@@]2(C[C@@H]3CC[C@H]4[C@@H](C(=O)OCCCCCCCCCCCCCCCC(=O)N(CCCN)C[C@@H](O)CCN)[C@@]5(CCC[C@@H](C)O5)NC(=[N+]34)N2)O1 | no (0)
2. CC(=O)O[C@]12CCCCCC1C1(O)C(O)CCCC[C@H]12 (some centres undefined) | no (0)
3. CCN1CCC(O)(/C=C/c2cccc(C)c2)C(C(=O)/C=C/c2cccc(C)c2)C1 (centres undefined) | no (0)
4. Nc1cccc(Nc2nc3ccccc3nc2NS(=O)(=O)c2ccccc2)c1 | no (0)
5. Cc1nc(-n2nc(-c3ccccc3)cc2-c2ccccc2)sc1C(/C=C\c1ccc([N+](=O)[O-])cc1)=N/NC(=S)NN | no (0)
6. NS(=O)(=O)c1nnc(NS(=O)(=O)c2ccccc2C(=O)O)s1 | no (0)
7. Cc1cc(OC(=O)Nc2ccc(Cl)cc2)ccc1C(=S)Nc1ccccc1 | no (0)
8. CNC(=O)OCc1c(COC(=O)NC)c(-c2ccc(Cl)c(Cl)c2)n2c1SCC2 | no (0)
9. O=Cc1cc2c(o1)C(=O)c1ccccc1C2=O | yes (1)
10. C/C=C(/CCCCNCCCC)[Si](C)(C)C | no (0)
11. CCc1cccc(C(C)C)c1NC(=O)C(=O)C1C(=O)NC(=O)NC1=O | no (0)
12. COc1ccc2[nH]cc(CCNC(=O)[C@H](Cc3ccc(O)cc3)NC(=O)[C@@H](NCC(F)(F)F)C(C)C)c2c1 | no (0)
13. O=C1CCC(=O)C1=NNc1cc(Cl)cc(Cl)c1 | no (0)
14. CC(=O)O[C@@]12CO[C@@H]1CC(O)[C@@]1(C)C(=O)[C@H](O)C3=C(C)C(O)C[C@@](O)(C(OC(=O)c4ccccc4)C12)C3(C)C (some centres undefined) | yes (1)
15. COc1cc(C2C(C(=O)Nc3ccc(Cl)c(Cl)c3)=C(C)NC(C)=C2C(=O)Nc2ccc(Cl)c(Cl)c2)ccc1O | no (0)
16. COc1ccc(OC)c(C#Cc2ccc(OC)c(C(=O)NCCc3ccc(F)cc3)c2)c1 | no (0)
17. CC/C(=N\NS(=O)(=O)c1ccccc1)c1ccccc1 | no (0)
18. N#CC(C(=O)CCCC(=O)Nc1ccc(Cl)cc1Cl)c1ccccc1 (centres undefined) | no (0)
19. CNC(=S)N/N=C/c1cccc(C)n1 | no (0)
